Entry source: PubChem BioAssay AID1963858

Tested on: HOP-62 multicell spheroids with HUVEC/MSC, viability
Experiment: Anticancer human tumor HOP-62 cell line growth inhibition [KRAS2];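 note: viability read after a week of compound exposure; 100% = DMSO vehicle-treated spheroids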
Details: second compound 0.1 µM; first compound 3.16 µM; stronger effect = lower value
viability, T/C values by entry
Your answer is read as %, so omit the unit and give the number.

-- ask So what's the measured viability, T/C for this one? CC1OCC2(CCN(c3cnc(Sc4ccnc(N)c4Cl)c(N)n3)CC2)C1N (stereo not given) + C=CC(=O)N1CCN(c2nc(=O)n(-c3c(C)ccnc3C(C)C)c3nc(-c4c(O)cccc4F)c(F)cc23)C(C)C1
-- reply 12.5

-- ask And what about the compound Cn1nccc1Nc1nccc(-c2cc3c(s2)C(C)(C)N(CCN2CCOCC2)C3=O)n1 + CC1OCC2(CCN(c3cnc(Sc4ccnc(N)c4Cl)c(N)n3)CC2)C1N ?
-- reply 21.4

-- ask Lookup CC(C)NCC(C(=O)N1CCN(c2ncnc3c2C(C)CC3O)CC1)c1ccc(Cl)cc1 (stereo not given) + CNCc1ccccc1-c1csc(C(C)Nc2nc(C)nc3cc(OC)c(OC)cc23)c1
-- reply 17.2

-- ask Next compound: CCNC(=O)CC1N=C(c2ccc(Cl)cc2)c2cc(OC)ccc2-n2c(C)nnc21 (stereo not given) + C=CC(=O)N1CCN(c2nc(OCC3CCCN3C)nc3c2CCN(c2cccc4cccc(C)c24)C3)CC1CC#N
-- reply 18.2

-- ask Do the same for Cn1nccc1Nc1nccc(-c2cc3c(s2)C(C)(C)N(CCN2CCOCC2)C3=O)n1 + C=CC(=O)N1CCN(c2nc(OCC3CCCN3C)nc3c2CCN(c2cccc4cccc(C)c24)C3)CC1CC#N please
-- reply 17.2

---

System: HOP-62 multicell spheroids with HUVEC/MSC, viability
Assay: Anticancer human tumor HOP-62 cell line growth inhibition [KRAS2];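 note: viability read after a week of compound exposure; 100% = DMSO vehicle-treated spheroids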
Conditions: second compound 0.316 µM; first compound 0.01 µM; stronger effect = lower value
PROPERTY: viability, T/C

MOLECULE: CC(=O)Nc1cccc(-n2c(=O)n(C3CC3)c(=O)c3c(Nc4ccc(I)cc4F)n(C)c(=O)c(C)c32)c1 + C=CC(=O)N1CCN(c2nc(=O)n(-c3c(C)ccnc3C(C)C)c3nc(-c4c(O)cccc4F)c(F)cc23)C(C)C1
VALUE REPORTED: 19.2%
//
MOLECULE: CC(=O)OC12COC1CC(O)C1(C)C(=O)C(O)C3=C(C)C(OC(=O)C(O)C(NC(=O)OC(C)(C)C)c4ccccc4)CC(O)(C(OC(=O)c4ccccc4)C21)C3(C)C (configuration not stated) + C=CC(=O)N1CCN(c2nc(OCC3CCCN3C)nc3c2CCN(c2cccc4cccc(C)c24)C3)CC1CC#N
VALUE REPORTED: 18.7%

-- ask Recorded viability, T/C for CCN1CCN(Cc2ccc(Nc3ncc(F)c(-c4cc(F)c5nc(C)n(C(C)C)c5c4)n3)nc2)CC1 + C=CC(=O)N1CCN(c2nc(OCC3CCCN3C)nc3c2CCN(c2cccc4cccc(C)c24)C3)CC1CC#N , please?
-- reply 51.4%

---

Test system: HOP-62 multicell spheroids with HUVEC/MSC, viability
Assay: Anticancer human tumor HOP-62 cell line growth inhibition [KRAS2]; active = viability on the fitted dose curve at most 10% of control; inactive = the rest;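 note: viability read after a week of compound exposure; 100% = DMSO vehicle-treated spheroids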
Settings: second compound 3.16 µM; first compound 0.000316 µM
The reply should name one outcome from true for active, false for inactive

COMPOUND: CC(=O)Nc1cccc(-n2c(=O)n(C3CC3)c(=O)c3c(Nc4ccc(I)cc4F)n(C)c(=O)c(C)c32)c1 + COc1cc2nc(C)nc(NC(C)c3cc(N)cc(C(F)(F)F)c3)c2cc1OC1CCOC1
ASSIGNED CATEGORY: false

COMPOUND: CC(C)n1nc(-c2ccc3oc(N)nc3c2)c2c(N)ncnc21 + CC1OCC2(CCN(c3cnc(Sc4ccnc(N)c4Cl)c(N)n3)CC2)C1N
ASSIGNED CATEGORY: false

COMPOUND: Cn1ncnc1[C@H]1c2n[nH]c(=O)c3cc(F)cc(c23)N[C@@H]1c1ccc(F)cc1 + COc1cc2nc(C)nc(NC(C)c3cc(N)cc(C(F)(F)F)c3)c2cc1OC1CCOC1
ASSIGNED CATEGORY: false

COMPOUND: CC(=O)Nc1cccc(-n2c(=O)n(C3CC3)c(=O)c3c(Nc4ccc(I)cc4F)n(C)c(=O)c(C)c32)c1 + CNCc1ccccc1-c1csc(C(C)Nc2nc(C)nc3cc(OC)c(OC)cc23)c1
ASSIGNED CATEGORY: true

COMPOUND: CN(C)C/C=C/C(=O)Nc1cc2c(Nc3ccc(F)c(Cl)c3)ncnc2cc1O[C@H]1CCOC1 + CC1OCC2(CCN(c3cnc(Sc4ccnc(N)c4Cl)c(N)n3)CC2)C1N
ASSIGNED CATEGORY: false

COMPOUND: Cn1ncnc1[C@H]1c2n[nH]c(=O)c3cc(F)cc(c23)N[C@@H]1c1ccc(F)cc1 + CNCc1ccccc1-c1csc(C(C)Nc2nc(C)nc3cc(OC)c(OC)cc23)c1
ASSIGNED CATEGORY: true

-- ask Hey, what did the test say about CC(C)n1nc(-c2ccc3oc(N)nc3c2)c2c(N)ncnc21 + COc1cc2nc(C)nc(NC(C)c3cc(N)cc(C(F)(F)F)c3)c2cc1OC1CCOC1 ?
-- reply false

-- ask Then this compound: CC(C)n1nc(-c2ccc3oc(N)nc3c2)c2c(N)ncnc21 + C=CC(=O)N1CCN(c2nc(=O)n(-c3c(C)ccnc3C(C)C)c3nc(-c4c(O)cccc4F)c(F)cc23)C(C)C1
-- reply false

-- ask Subsequent entry: Cn1ncnc1[C@H]1c2n[nH]c(=O)c3cc(F)cc(c23)N[C@@H]1c1ccc(F)cc1 + CC1OCC2(CCN(c3cnc(Sc4ccnc(N)c4Cl)c(N)n3)CC2)C1N
-- reply false

-- ask Do the same for CN(C)C/C=C/C(=O)Nc1cc2c(Nc3ccc(F)c(Cl)c3)ncnc2cc1O[C@H]1CCOC1 + C=CC(=O)N1CCN(c2nc(=O)n(-c3c(C)ccnc3C(C)C)c3nc(-c4c(O)cccc4F)c(F)cc23)C(C)C1 please
-- reply false

-- ask Now the same for CN(C)C/C=C/C(=O)Nc1cc2c(Nc3ccc(F)c(Cl)c3)ncnc2cc1O[C@H]1CCOC1 + COc1cc2nc(C)nc(NC(C)c3cc(N)cc(C(F)(F)F)c3)c2cc1OC1CCOC1
-- reply false
